system: HCEpiC; assay: Flow cytometry uptake mechanism with endocytic inhibitors, HCEpiC; type: cell-based, human; details: inhibitor pre-incubated 30 min, nanocomposites 4 h
Counter-ions that a name gives are not always drawn.
MEASURE: Effect of inhibitor on cellular uptake of FITC-labeled nanocomposites vs control

Lab book: Effect of inhibitor on cellular uptake of FITC-labeled nanocomposites vs control of C[C@@H]1[C@H](O)[C@@H](C)/C=C/C=C/CC/C=C/C=C/C=C/C=C/C(O[C@H]2O[C@H](C)[C@@H](O)[C@H](N)[C@@H]2O)CC2O[C@](O)(CC(O)C(O)CCC(O)CC(O)CC(O)CC(=O)O[C@H]1C)CC(O)C2C(=O)O (stereo partly drawn) noted as no significant influence

Lab book: Effect of inhibitor on cellular uptake of FITC-labeled nanocomposites vs control of "OC[C@H]1O[C@@](CO)(O[C@H]2O[C@H](CO)[C@@H](O)[C@H](O)[C@H]2O)[C@@H](O)[C@@H]1O" noted as significantly decreased

Lab book: Effect of inhibitor on cellular uptake of FITC-labeled nanocomposites vs control of "O=c1c(-c2ccc(O)cc2)coc2cc(O)cc(O)c12" noted as no significant influence

Lab book: Effect of inhibitor on cellular uptake of FITC-labeled nanocomposites vs control of CN(C)CCCN1c2ccccc2Sc2ccc(Cl)cc21 [chlorpromazine, chlorpromazine hydrochloride] noted as significantly decreased
